- Target Entity: potassium ion channel hERG (human Ether-á-go-go-Related Gene) (Homo sapiens)
- Sequence (Q12809 whole entry): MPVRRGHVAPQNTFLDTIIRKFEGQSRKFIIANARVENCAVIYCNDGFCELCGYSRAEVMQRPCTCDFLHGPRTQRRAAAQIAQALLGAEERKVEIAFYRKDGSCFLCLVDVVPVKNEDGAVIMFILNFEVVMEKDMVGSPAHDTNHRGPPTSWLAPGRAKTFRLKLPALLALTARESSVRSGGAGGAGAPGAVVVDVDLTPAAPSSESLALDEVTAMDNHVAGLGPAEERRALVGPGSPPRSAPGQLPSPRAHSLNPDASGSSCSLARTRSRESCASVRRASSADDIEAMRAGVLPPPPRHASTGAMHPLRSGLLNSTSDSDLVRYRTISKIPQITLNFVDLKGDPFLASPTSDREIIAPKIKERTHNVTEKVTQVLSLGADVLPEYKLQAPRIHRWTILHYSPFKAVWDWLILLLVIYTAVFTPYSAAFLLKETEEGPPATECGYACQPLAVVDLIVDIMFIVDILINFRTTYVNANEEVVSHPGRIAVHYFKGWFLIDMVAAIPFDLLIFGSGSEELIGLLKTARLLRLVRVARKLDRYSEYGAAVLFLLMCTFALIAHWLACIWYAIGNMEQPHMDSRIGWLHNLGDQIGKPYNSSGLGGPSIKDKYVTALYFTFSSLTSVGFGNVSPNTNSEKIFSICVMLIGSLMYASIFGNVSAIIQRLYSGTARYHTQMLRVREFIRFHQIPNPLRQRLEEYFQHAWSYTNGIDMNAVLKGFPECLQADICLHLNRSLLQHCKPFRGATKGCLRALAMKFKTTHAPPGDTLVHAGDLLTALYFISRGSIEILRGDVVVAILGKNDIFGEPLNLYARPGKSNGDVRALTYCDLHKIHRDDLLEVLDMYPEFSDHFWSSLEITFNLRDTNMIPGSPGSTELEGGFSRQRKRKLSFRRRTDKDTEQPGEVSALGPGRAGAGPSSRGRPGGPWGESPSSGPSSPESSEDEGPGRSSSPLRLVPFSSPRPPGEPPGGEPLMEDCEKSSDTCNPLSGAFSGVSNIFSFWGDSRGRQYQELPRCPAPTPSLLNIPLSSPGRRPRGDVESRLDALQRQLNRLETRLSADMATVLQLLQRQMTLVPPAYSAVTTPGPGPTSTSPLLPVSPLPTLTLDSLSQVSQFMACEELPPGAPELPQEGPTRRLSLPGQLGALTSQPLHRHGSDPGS
- Experiment Notes: Assay 5 - hERG assay (SyncroPatch 384PE patch clamp, CHO cells)
- Condition Description: geometric mean; CHO cells over-expressing hERG; read-out: Assay 5 (hERG Hu CHO IF EPh CR-Syncro) GMean IC50
pIC50: −log10 of the molar value.
Reported pIC50 is given for each of the following molecules.

{"Query Smiles": "CC(=O)c1cnc(N[C@H]2CC[C@H](Nc3ccc(-n4ccccc4=O)cn3)C2)cn1", "pIC50": "< 4.40"}
{"Query Smiles": "COc1cccn(-c2ccc(N[C@H]3CC[C@H](Nc4cnc(OC(F)F)cn4)C3)nc2)c1=O", "pIC50": 4.76}
{"Query Smiles": "CCSc1cnc(N[C@H]2CC[C@H](Nc3ccc(-n4ccccc4=O)cn3)C2)cn1", "pIC50": 4.51}
{"Query Smiles": "Nc1ccc2ncc(N[C@H]3CC[C@H](Nc4ccc(-n5ccccc5=O)cn4)C3)nc2n1", "pIC50": "< 4.40"}
{"Query Smiles": "Cc1cnc(N[C@H]2CC[C@H](Nc3ccc(-n4cc(C#N)ccc4=O)cn3)C2)cn1", "pIC50": "< 4.40"}

Prompt: Request body: readout pIC50, system potassium ion channel hERG (human Ether-á-go-go-Related Gene) (Homo sapiens), query Cc1cnc(N[C@H]2CC[C@H](Nc3ccc(N4C(=O)CN(C)C4=O)cn3)C2)cn1 . Return the value.
Completion: < 4.40

Prompt: Request body: readout pIC50, system potassium ion channel hERG (human Ether-á-go-go-Related Gene) (Homo sapiens), query O=c1ccccn1-c1ccc(N[C@H]2CC[C@H](Nc3cnc(Cl)cn3)C2)nc1 . Return the value.
Completion: 4.61

Prompt: Request body: readout pIC50, system potassium ion channel hERG (human Ether-á-go-go-Related Gene) (Homo sapiens), query Cc1cnc(N[C@H]2CC[C@H](Nc3ccc(-n4cccc(-c5cn[nH]c5)c4=O)cn3)C2)cn1 . Return the value.
Completion: < 4.40
